molecular target: GSK3β (Homo sapiens, UniProt P49841)
Sequence (P49841 whole entry): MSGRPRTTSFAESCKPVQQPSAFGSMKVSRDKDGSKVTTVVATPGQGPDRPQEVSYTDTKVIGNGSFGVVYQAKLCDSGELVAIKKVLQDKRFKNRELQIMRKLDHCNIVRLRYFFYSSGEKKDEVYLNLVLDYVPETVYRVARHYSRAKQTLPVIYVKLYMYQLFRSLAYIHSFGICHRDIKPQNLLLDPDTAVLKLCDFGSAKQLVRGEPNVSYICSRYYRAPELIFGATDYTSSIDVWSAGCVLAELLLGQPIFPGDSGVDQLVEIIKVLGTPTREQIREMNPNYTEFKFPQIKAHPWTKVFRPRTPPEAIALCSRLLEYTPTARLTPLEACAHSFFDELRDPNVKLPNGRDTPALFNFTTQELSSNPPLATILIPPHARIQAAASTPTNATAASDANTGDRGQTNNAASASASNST
Measured Parameter: pIC50
Expect pIC50 as a plain number equal to -log10 of the molar concentration.

Look up pIC50 of COc1ccccc1CNC1COCCn2c1nc(-c1ccncn1)cc2=O (racemic) and report it.
7.39

###

Structures can show the parent of a compound that is named as a salt.
Measured Parameter: melting point

Molecule	melting point
CC(=O)Oc1ccccc1C(=O)NC1COCCn2c1nc(-c1ccncn1)cc2=O (racemic)	202 to 204 °C
COc1ccccc1CNC1COCCn2c1nc(-c1ccncn1)cc2=O (racemic) (as salt: HCl)	254 to 256 °C
COc1ccc(Cl)cc1C(=O)NC1COCCn2c1nc(-c1ccncc1)cc2=O (racemic)	235 to 237 °C

From here, focus on the item given below.
Look up melting point of COc1ccc(S(N)(=O)=O)cc1C(=O)NC1COCCn2c1nc(-c1ccncn1)cc2=O (racemic) and report it.
257 to 259 °C

Sourced from patent US8507470B2
